# Tested On: T1, hCD112R mFC recombinant protein (human; murine, UniProt Q6DKI7 41-160)
# T1 construct: range 41-160; expressed in 293E cells; also called hCD112R ECD mFC; hCD112R-ECD-mFC; not shown: murine IgG2a Fc domain (MX2-mFc vector)
# T1 sequence (looked up): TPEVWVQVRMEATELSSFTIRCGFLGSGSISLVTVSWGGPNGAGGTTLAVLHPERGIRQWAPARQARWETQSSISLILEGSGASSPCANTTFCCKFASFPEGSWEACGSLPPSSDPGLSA
# Experiment Notes: ELISA, coated hCD112R-ECD-mFC; EC50 COM701/EC50 antibody
Experimental Readout: Relative activity (%)
Only the number, expressed in %, is required.

These solved cases illustrate the format of a correct answer.
Hu27 (antibody, IgG4, V domains shown, humanized IgG4) VH: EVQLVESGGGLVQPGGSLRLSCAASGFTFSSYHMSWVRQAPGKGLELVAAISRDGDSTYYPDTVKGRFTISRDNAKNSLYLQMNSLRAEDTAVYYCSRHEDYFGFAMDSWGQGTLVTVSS VL: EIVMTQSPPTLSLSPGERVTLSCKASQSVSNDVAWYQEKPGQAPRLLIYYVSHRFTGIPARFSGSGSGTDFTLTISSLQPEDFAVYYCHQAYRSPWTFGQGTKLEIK; 137
Hu19 (antibody, IgG4, V domains shown, humanized IgG4) VH: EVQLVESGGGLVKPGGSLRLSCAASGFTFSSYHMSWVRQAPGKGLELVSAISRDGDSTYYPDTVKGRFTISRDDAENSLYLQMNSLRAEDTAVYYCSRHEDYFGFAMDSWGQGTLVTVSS VL: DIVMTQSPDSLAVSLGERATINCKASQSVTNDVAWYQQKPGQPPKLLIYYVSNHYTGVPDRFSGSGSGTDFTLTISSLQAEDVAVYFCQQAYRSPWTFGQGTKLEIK; 139

Incoming: State its Relative activity (%): Hu11 (antibody, IgG4, V domains shown, humanized IgG4) VH: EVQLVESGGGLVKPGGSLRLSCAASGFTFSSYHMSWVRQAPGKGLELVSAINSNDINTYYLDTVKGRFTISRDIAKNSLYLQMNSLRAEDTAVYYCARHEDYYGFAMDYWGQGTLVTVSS VL: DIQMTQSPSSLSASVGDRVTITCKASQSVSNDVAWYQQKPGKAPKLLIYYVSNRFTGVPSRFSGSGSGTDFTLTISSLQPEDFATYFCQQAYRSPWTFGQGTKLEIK
Outgoing: 143

Every entry's value here was drawn from patent US20240309087A1.
